- measurement.notes: HT EQ solubility assay
- Assay type: physicochemical
- experimental.parameters: thermodynamic from solid; fassif, stirred 24 h; read-out: HtEq Sol
Entries annotated with measured solubility thermodynamic at 24 h
A number alone suffices; assume µM.

compound | unit.of.measurement | measured.value
Cc1c(C(=O)C(=O)NC2(c3cn[nH]n3)CC(F)(F)C2)cn(C)c1C(=O)Nc1ccc(F)c(Cl)c1 [Compound 13] | µM | 39.8

Here's the next entry for you.
input: solubility thermodynamic at 24 h lookup needed for Cc1c(C(=O)C(=O)NC2(c3c[nH]nn3)CC(F)(F)C2)c(C)n(C)c1C(=O)Nc1ccc(F)c(C#N)c1 [Compound 28] , thanks.
output: 46.8

* * *

- measurement.notes: Pharmacokinetics assessment in mice
- Type: in vivo, C57BL mice
- experimental.parameters: male, C57BL, plasma; mouse, PO (PEG400) 10 mg/kg
Entries annotated with measured AUC(0-t)
A number alone suffices; assume ng·h/mL.

smiles.notation | unit.of.measurement | AUC(0-t)
Cc1c(C(=O)C(=O)NC2(c3cn[nH]n3)CC(F)(F)C2)cn(C)c1C(=O)Nc1ccc(F)c(Cl)c1 | ng·h/mL | 12500

Here's the next entry for you.
input: AUC(0-t) lookup needed for Cc1c(C(=O)C(=O)NC2(c3c[nH]nn3)CC(F)(F)C2)c(C)n(C)c1C(=O)Nc1ccc(F)c(C#N)c1 , thanks.
output: 153

* * *

- measurement.notes: Cytotoxicity, ATPlite cell viability
- Format: cell-based
- experimental.parameters: human, mean value, HepG2 or HepG2.117 cells
measured.endpoint: CC50 at 4 days

# example entries with known answers
molecule | CC50 at 4 days
Cc1c(C(=O)C(=O)NC2(c3c[nH]nn3)CC(F)(F)C2)c(C)n(C)c1C(=O)Nc1ccc(F)c(C#N)c1 [Compound 28] | > 50 µM
Cc1c(C(=O)C(=O)NC(C)(c2cn[nH]n2)C(F)(F)F)cn(C)c1C(=O)Nc1ccc(F)c(C#N)c1 (centres unmarked) [Compound 51] | > 50 µM
Cn1cc(C(=O)C(=O)NC2(c3cn[nH]n3)COC2)cc1C(=O)Nc1ccc(F)c(C#N)c1 [Compound 17] | > 50 µM
Cc1c(C(=O)C(=O)NC2(c3cn[nH]n3)CC(F)(F)C2)cn(C)c1C(=O)Nc1ccc(F)c(C#N)c1 [Compound 12] | > 50 µM

input: CC50 at 4 days lookup needed for Cn1c(C(=O)Nc2ccc(F)c(C#N)c2)c(F)c(C(=O)C(=O)NC2(c3cn[nH]n3)CC(F)(F)C2)c1C1CC1 [Compound 52] , thanks.
output: > 40.6 µM

* * *

- measurement.notes: Cytotoxicity, ATPlite cell viability
- Type: cell-based
- experimental.parameters: human, mean value, HepG2 or HepG2.117 cells
measured.endpoint: CC50 at 4 days

# example entries with known answers
compound | CC50 at 4 days
Cn1cc(C(=O)C(=O)N[C@@]2(c3cn[nH]n3)CCC(F)(F)C2)cc1C(=O)Nc1ccc(F)c(C#N)c1 (single isomer, unassigned) [18*S] | 20.7 µM
Cn1cc(C(=O)C(=O)NC2(c3cn[nH]n3)CC(F)(F)C2)c(F)c1C(=O)Nc1ccc(F)c(C#N)c1 [Compound 5] | 11.9 µM
Cc1c(C(=O)C(=O)N[C@](C)(c2cn[nH]n2)C(F)F)cn(C)c1C(=O)Nc1ccc(F)c(C#N)c1 (single isomer, unassigned) [48*R] | > 50 µM

input: CC50 at 4 days lookup needed for Cn1c(C#N)c(C(=O)C(=O)NC2(c3cn[nH]n3)CC(F)(F)C2)c(F)c1C(=O)Nc1ccc(F)c(C#N)c1 [Compound 50] , thanks.
output: > 50 µM

input: CC50 at 4 days lookup needed for Cc1cc(NC(=O)c2cc(C(=O)C(=O)NC(C)c3cn[nH]n3)cn2C)ccc1F (stereo not shown) [Compound 1] , thanks.
output: > 50 µM

input: CC50 at 4 days lookup needed for Cc1c(C(=O)C(=O)NC2(c3cn[nH]n3)CC(F)(F)C2)cn(C)c1C(=O)Nc1ccc(F)c(Br)c1 [Compound 34] , thanks.
output: 26.3 µM

input: CC50 at 4 days lookup needed for Cn1cc(C(=O)C(=O)NC2(c3c[nH]nn3)CC2)cc1C(=O)Nc1ccc(F)c(C#N)c1 [Compound 10] , thanks.
output: > 50 µM
